Where these numbers come from: patent US20050228180A1

# Target Under Test: α1A adrenoceptor (Rattus norvegicus, UniProt P43140)
# Construct: from tissue; host or cells: rat submaxillary gland membranes
# Experimental Details: Radioligand binding, [3H] prazosin displacement, rat submaxillary membranes
# Condition Info: ratio of binding affinities, rat liver / rat submaxillary
Where a name gives a salt, the structure may show the parent alone.
Each entry below carries its reported α1B/α1A.
Hey, just send me the number, nothing else.

The following molecules have reported results that may help.
Molecule: CCOc1ccccc1N1CCN(CCN2C(=O)C3CC=CCC3C2=O)CC1.Cl (stereo not shown)
α1B/α1A: 10

Molecule: Cl.O=C1C2CC=CCC2C(=O)N1CCN1CCN(c2ccccc2OCC(F)(F)F)CC1 (stereo not shown)
α1B/α1A: 14

Molecule: CCOc1ccccc1N1CCN(CCCN2C(=O)C3CC(O)C(O)CC3C2=O)CC1 (stereo not shown)
α1B/α1A: 69

Molecule: CC(C)Oc1ccccc1N1CCN(CCC(=O)N2C(=O)C3CC=CCC3C2=O)CC1.Cl (stereo not shown)
α1B/α1A: 1

Molecule: CC(C)Oc1c(O)cccc1N1CCN(CCCN2C(=O)C3CC=CCC3C2=O)CC1 (stereo not shown) [Compound No. 35, hydrochloride]
α1B/α1A: 15

Molecule: CC(C)Oc1ccccc1N1CCN(CCCN2C(=O)C3CC=CC(O)C3C2=O)CC1.Cl (stereo not shown)
α1B/α1A: 350

Measured α1B/α1A, "O=C1CCCC(=O)N1CCCN1CCN(c2ccccc2OCC(F)(F)F)CC1" : 181

Entry Cl.O=C1C2CC=CCC2C(=O)N1CC(O)CN1CCN(c2ccccc2O)CC1 (stereo not shown) , α1B/α1A reported as 10

Short answer for CC(C)Oc1ccc(O)cc1N1CCN(CCCN2C(=O)C3CC=CCC3C2=O)CC1.Cl (stereo not shown) : α1B/α1A was 189

Measured α1B/α1A of COc1ccccc1N1CCN(CC(O)CN2C(=O)C3CC=CCC3C2=O)CC1.Cl (stereo not shown) : 7

###

# Target Under Test: α1A adrenoceptor (prostate) (Rattus norvegicus, UniProt P43140)
# Construct: from tissue; host or cells: isolated prostate tissue
# Sequence (P43140 1-466): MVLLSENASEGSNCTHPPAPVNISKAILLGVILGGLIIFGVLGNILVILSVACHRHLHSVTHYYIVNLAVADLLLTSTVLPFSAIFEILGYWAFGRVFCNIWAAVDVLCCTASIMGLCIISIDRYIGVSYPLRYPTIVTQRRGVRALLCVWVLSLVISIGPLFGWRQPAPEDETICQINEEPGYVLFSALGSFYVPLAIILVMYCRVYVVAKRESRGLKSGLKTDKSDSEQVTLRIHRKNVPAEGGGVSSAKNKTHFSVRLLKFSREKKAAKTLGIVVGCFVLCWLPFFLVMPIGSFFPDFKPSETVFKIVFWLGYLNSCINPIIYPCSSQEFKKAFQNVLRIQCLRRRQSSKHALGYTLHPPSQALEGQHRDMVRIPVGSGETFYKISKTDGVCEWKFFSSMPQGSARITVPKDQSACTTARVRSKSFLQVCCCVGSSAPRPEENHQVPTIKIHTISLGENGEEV
# Experimental Details: In vitro functional assay, isolated prostate, phenylepinephrine contraction
# Type: cell-based
# Condition Info: functional, from pKB
Overview of recorded Selectivity α1B/α1A for various compounds
// return a plain number; no unit text

Example compounds with recorded Selectivity α1B/α1A:
Compound: CC(C)Oc1ccccc1[N+]1([O-])CC[N+]([O-])(CCCN2C(=O)C3CC=CCC3C2=O)CC1 (centres unmarked)
Target Under Test: α1A adrenoceptor (prostate) (Rattus norvegicus, UniProt P43140)
Selectivity α1B/α1A: 3.3
--
Compound: Cl.O=C1C2CC=CCC2C(=O)N1CCCN1CCN(c2ccccc2OC2CCCC2)CC1 (centres unmarked)
Target Under Test: α1A adrenoceptor (prostate) (Rattus norvegicus, UniProt P43140)
Selectivity α1B/α1A: 7.4
--
Compound: CC(C)Oc1ccccc1N1CCN(CCCN2C(=O)C3CC=CC(O)C3C2=O)CC1.Cl (centres unmarked)
Target Under Test: α1A adrenoceptor (prostate) (Rattus norvegicus, UniProt P43140)
Selectivity α1B/α1A: 132
--
Compound: CCOc1ccccc1[N+]1([O-])CC[N+]([O-])(CCCN2C(=O)C3CC=CCC3C2=O)CC1 (centres unmarked)
Target Under Test: α1A adrenoceptor (prostate) (Rattus norvegicus, UniProt P43140)
Selectivity α1B/α1A: 13

Recorded result, Cl.O=C1C2CC=CCC2C(=O)N1CCCN1CCN(c2ccccc2OCC(F)(F)F)CC1 (centres unmarked) , Selectivity α1B/α1A: 7.07
